System: U2OS
Test: Incucyte cell viability with U2OS; also: unitless GR value; below 1 slowed growth and below 0 cell loss
Type: toxicity, cell-based
Conditions: human, 24 h, 10 µM, compound concentration 10 uM, replicate number 2
Peptide text beside a SMILES is read from it. * marks the point of attachment. CH2Cl = ClC*
Listed next: entries and their corresponding Growth Rate.

- molecule: "Br.N#Cc1ccc(-c2csc(NN=C3CCCC3)n2)cc1"
  Growth Rate: 1
- molecule: "C[C@@H]1CN(c2nccc(Nc3ccc4c(c3)n(CCC(C)(C)O)c(=O)n4C)n2)C[C@H](C)C1(F)F"
  Growth Rate: 0.76
- molecule: "Cc1ncccc1-c1cnc(NCc2c(F)ccc3c2CCO3)n2cnnc12"
  Growth Rate: 0.88
- molecule: "Cc1cc(/N=N/c2ccc3c(c2)CCC(=O)N3)c(N)cc1O"
  Growth Rate: 1
- molecule: "CC(C)Nc1cc(-c2c[nH]c(C(=O)N[C@H](CO)c3cccc(Cl)c3)c2)c(Cl)cn1"
  Growth Rate: 0.74
- molecule: "COCCOCCn1nc2c(c1C)-c1c(Cl)ccc3c1c(C)c(C(=O)O)n3CCCOc1cc(cc3c(F)c(Cl)ccc13)CCc1cc(nn1C)CSC2"
  Growth Rate: 0.75
- molecule: "Cc1nc(-c2cnc(NC(C)C)n(C)c2=O)ccc1Oc1ccnc(-c2cnn(C)c2)c1"
  Growth Rate: 0.46
- molecule: "CS(=O)(=O)c1ccc(-c2cnc(NCc3ccco3)n3cnnc23)cc1"
  Growth Rate: 0.66
- molecule: "COc1nc(Nc2cc(S(C)(=O)=O)ccc2N[C@@H](c2cccc3c2OC(F)(F)O3)c2ncccc2Cl)nc(N2CCNCC2)n1"
  Growth Rate: -0.02
- molecule: "N#Cc1ccc([C@H]2CCCC[C@H]2O)cc1C(F)(F)F"
  Growth Rate: 0.84
- molecule: "O=C(Nc1c[nH]nc1C(=O)NC1CCNCC1)c1cc(F)cc(F)c1"
  Growth Rate: 0.19
- molecule: "O=C(CCl)Nc1ccc(S(=O)(=O)c2ccc(NC(=O)CCl)cc2)cc1"
  Growth Rate: 0.05
- molecule: "CC(C)NCC(O)COC(Cn1c2ccccc2c2ccccc21)Cn1c2ccccc2c2ccccc21 (centres undefined)"
  Growth Rate: 1
- molecule: "CC(=O)N[C@@H](Cc1ccccc1)C(=O)N[C@@H](CC(C)C)C(=O)N[C@H](C(=O)N[C@@H](CC(=O)O)C(=O)CCl)[C@@H](C)O (Ac-FLTD-CH2Cl)"
  Growth Rate: 0.66
- molecule: "CCNC(=O)NCCSC[C@H]1O[C@@H](n2cnc3c(N)ncnc32)[C@H](O)[C@@H]1O"
  Growth Rate: 0.72
- molecule: "COc1nc(N)nc(Nc2cc(S(N)(=O)=O)ccc2N[C@@H](c2cccc3c2OC(F)(F)O3)c2ncccc2Cl)n1"
  Growth Rate: 0.89
- molecule: "O=C(CCCCCCNC(=O)c1cnc(N(c2ccccc2)c2ccccc2)nc1)NO"
  Growth Rate: 0.16
- molecule: "Cc1ncsc1-c1ccc([C@H](C)NC(=O)[C@@H]2C[C@@H](O)CN2C(=O)[C@@H](NC(=O)COCCCOCCNC(=O)C[C@@H]2N=C(c3ccc(Cl)cc3)c3c(sc(C)c3C)-n3c(C)nnc32)C(C)(C)C)cc1"
  Growth Rate: 0.03
- molecule: "Cn1ncc2c(-c3c(-c4ccc(F)cn4)nn4c3COC(C)(C)C4)ccnc21"
  Growth Rate: 0.95
- molecule: "CC(C)N(C[C@H]1O[C@@H](n2cnc3c(N)ncnc32)[C@H](O)[C@@H]1O)[C@H]1C[C@@H](CCc2nc3cc(C(C)(C)C)ccc3[nH]2)C1"
  Growth Rate: 0.85
- molecule: "Nc1c[nH]c(=O)c2cc(-c3ccccc3)sc12"
  Growth Rate: 0.33
- molecule: "CCn1c(=O)c(C)cn(Cc2nnc(-c3ccc(F)c(O)c3F)s2)c1=O"
  Growth Rate: 0.92
- molecule: "CCCC(NC(=O)C(CC(C)C)NC(=O)OCc1ccccc1)C(=O)C(=O)NCc1ccccn1 (racemic)"
  Growth Rate: 0.89
- molecule: "CCCn1/c(=N/C(=O)c2cccc(C(N)=O)c2)[nH]c2ccccc21"
  Growth Rate: 0.99
- molecule: "C[C@H](CN[C@@H](C(=O)Nc1ccc(-c2cnn(C)c2)cn1)c1ccccc1)c1ccc(C#N)cc1"
  Growth Rate: 0.39
- molecule: "CCCCN(Cc1ccc(C(=O)NO)cc1)C(=O)Nc1ccccc1"
  Growth Rate: 0.6
- molecule: "CN1CCN(c2ccc3nc(-c4c(N)c5c(F)cccc5[nH]c4=O)[nH]c3c2)CC1"
  Growth Rate: -0.04
- molecule: "COc1cc2c(NC3CCN(C4CCCCC4)CC3)nc(N3CCCN(C(C)C)CC3)nc2cc1OCCCN1CCCCC1"
  Growth Rate: 0.29
- molecule: "Nc1ccccc1NC(=O)c1ccc(CNc2nccc(-c3cccnc3)n2)cc1"
  Growth Rate: 0.28
- molecule: "O=C(NCCc1cc(C(=O)NO)no1)c1ccc(Cl)c(Cl)c1"
  Growth Rate: 1
- molecule: "CCN(c1cc(C#CCN2CCOCC2)cc(C(=O)NCc2c(C)cc(C)[nH]c2=O)c1C)[C@H]1CC[C@H](N(C)CCOC)CC1"
  Growth Rate: 0.81
- molecule: "O=C1/C(=N/Nc2ccc(S(=O)(=O)O)cc2)C(c2ccc([N+](=O)[O-])cc2)=NN1c1ccccc1"
  Growth Rate: 1
- molecule: "COc1ccc2c(c1)OC(C)(C)C(c1ccccc1)C2c1ccc(OCCN2CCCC2)cc1 (centres undefined)"
  Growth Rate: 0.75
- molecule: "CC(=O)N[C@@H](Cc1ccc(O)cc1)C(=O)N[C@H](C(=O)N[C@@H](C)C(=O)N[C@H](C=O)CC(=O)O)C(C)C"
  Growth Rate: 0.63

The reported measurements were obtained from ChEMBL document CHEMBL5724709.
